Value source: ChEMBL document CHEMBL1138152

test target: Delta-type opioid receptor (Homo sapiens, UniProt P41143)
Sequence (P41143 whole entry): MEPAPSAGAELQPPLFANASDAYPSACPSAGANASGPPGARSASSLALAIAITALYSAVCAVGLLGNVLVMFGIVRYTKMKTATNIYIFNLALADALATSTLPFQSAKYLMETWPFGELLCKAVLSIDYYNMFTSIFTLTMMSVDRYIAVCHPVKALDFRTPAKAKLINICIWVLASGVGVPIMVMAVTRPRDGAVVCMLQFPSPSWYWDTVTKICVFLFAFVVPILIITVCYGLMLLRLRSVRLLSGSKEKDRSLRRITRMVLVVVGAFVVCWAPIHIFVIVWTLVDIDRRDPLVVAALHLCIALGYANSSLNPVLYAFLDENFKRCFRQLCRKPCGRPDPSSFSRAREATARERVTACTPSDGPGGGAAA
method summary: Displacement of [3H]DPDPE from human delta opioid receptor expressed in HN9.10 cells
Task for the reader: assign each of the following compounds its reported Ki.
Numbers only here, please. The scale is nM.

# input Returns the measured Ki for the input compound. Input: "CCCC[C@H](NC(=O)[C@H](Cc1c[nH]c2ccccc12)NC(C)=O)C(=O)N[C@@H](CC(=O)O)C(=O)N(C)[C@@H](Cc1ccccc1)C(=O)NNC(=O)[C@H](Cc1ccccc1)NC(=O)CNC(=O)[C@@H](C)NC(=O)[C@@H](N)Cc1ccc(O)cc1"
# output 5.2

# input Would you mind telling me what Ki value was observed for "CCCC[C@H](NC(=O)[C@@H](Cc1c[nH]c2ccccc12)NC(=O)OC(C)(C)C)C(=O)N[C@@H](CC(=O)O)C(=O)N[C@@H](Cc1ccccc1)C(=O)NNC(=O)[C@H](Cc1ccccc1)NC(=O)CNC(=O)[C@@H](C)NC(=O)[C@@H](N)Cc1ccc(O)cc1" ?
# output 45

# input Which value of Ki has been reported for "CCCC[C@H](NC(=O)[C@@H](Cc1c[nH]c2ccccc12)NC(=O)OC12CC3CC(CC(C3)C1)C2)C(=O)N[C@@H](CC(=O)O)C(=O)N[C@@H](Cc1ccccc1)C(=O)NNC(=O)[C@H](Cc1ccccc1)NC(=O)CNC(=O)[C@@H](C)NC(=O)[C@@H](N)Cc1ccc(O)cc1" in the records?
# output 0.23

# input Value lookup for Ki; key = "CCCC[C@@H](C(=O)N[C@@H](CC(=O)O)C(=O)N[C@@H](Cc1ccccc1)C(=O)NNC(=O)[C@H](Cc1ccccc1)NC(=O)CNC(=O)[C@@H](C)NC(=O)[C@@H](N)Cc1ccc(O)cc1)N(C)C(=O)[C@@H](Cc1c[nH]c2ccccc12)NC(=O)OC(C)(C)C"
# output 0.82

---

test target: Mu-type opioid receptor (Rattus norvegicus, UniProt P33535)
Sequence (P33535 whole entry): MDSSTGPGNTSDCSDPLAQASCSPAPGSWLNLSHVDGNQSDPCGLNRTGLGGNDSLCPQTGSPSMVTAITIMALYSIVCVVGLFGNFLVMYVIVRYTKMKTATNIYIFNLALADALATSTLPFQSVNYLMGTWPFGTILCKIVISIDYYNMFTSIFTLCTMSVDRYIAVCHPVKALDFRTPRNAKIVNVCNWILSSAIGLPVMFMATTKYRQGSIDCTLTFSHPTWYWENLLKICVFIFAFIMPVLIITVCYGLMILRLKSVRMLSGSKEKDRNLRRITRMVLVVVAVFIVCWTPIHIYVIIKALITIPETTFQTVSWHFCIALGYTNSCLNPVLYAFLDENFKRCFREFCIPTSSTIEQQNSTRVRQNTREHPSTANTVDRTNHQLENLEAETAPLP
method summary: Displacement of [3H]DAMGO from rat mu opioid receptor expressed in HN9.10 cells
property measured: log10(IC50) (log10 of the value in nM)
Could you please treat all values as log10 of IC50 in nM?

# input Look up log10(IC50): "CCCC[C@H](NC(=O)[C@@H](Cc1c[nH]c2ccccc12)NC(=O)OC12CC3CC(CC(C3)C1)C2)C(=O)N[C@@H](CC(=O)O)C(=O)N[C@@H](Cc1ccccc1)C(=O)NNC(=O)[C@H](Cc1ccccc1)NC(=O)CNC(=O)[C@@H](C)NC(=O)[C@@H](N)Cc1ccc(O)cc1"
# output 2.29

# input log10(IC50) for "CCCC[C@H](NC(=O)[C@H](Cc1c[nH]c2ccccc12)NC(=O)OC(C)(C)C)C(=O)N[C@@H](CC(=O)O)C(=O)N[C@@H](Cc1ccccc1)C(=O)NNC(=O)[C@H](Cc1ccccc1)NC(=O)CNC(=O)[C@@H](C)NC(=O)[C@@H](N)Cc1ccc(O)cc1" ?
# output 1.74

# input Item under review: "CCCC[C@H](NC(=O)[C@@H](Cc1c[nH]c2ccccc12)NC(=O)OC(C)(C)C)C(=O)N[C@@H](CC(=O)O)C(=O)N[C@@H](Cc1ccccc1)C(=O)NNC(=O)[C@H](Cc1ccccc1)NC(=O)CNC(=O)[C@@H](C)NC(=O)[C@@H](N)Cc1ccc(O)cc1" . Reported log10(IC50)?
# output 1.81

# input What value of measured log10(IC50) is listed for "CCCC[C@H](NC(=O)[C@H](N)Cc1c[nH]c2ccccc12)C(=O)N[C@@H](CC(=O)O)C(=O)N[C@@H](Cc1ccccc1)C(=O)NNC(=O)[C@H](Cc1ccccc1)NC(=O)CNC(=O)[C@@H](C)NC(=O)[C@@H](N)Cc1ccc(O)cc1" ?
# output 0.08

# input Which measured log10(IC50) value corresponds to CCCC[C@H](NC(=O)[C@@H](Cc1c[nH]c2ccccc12)NC(=O)OC1C2CC3CC(C2)CC1C3)C(=O)N[C@@H](CC(=O)O)C(=O)N[C@@H](Cc1ccccc1)C(=O)NNC(=O)[C@H](Cc1ccccc1)NC(=O)CNC(=O)[C@@H](C)NC(=O)[C@@H](N)Cc1ccc(O)cc1 (some centres not stated) ?
# output 1.57

# input Please report the recorded log10(IC50) for "CCCC[C@@H](C(=O)N[C@@H](CC(=O)O)C(=O)N[C@@H](Cc1ccccc1)C(=O)NNC(=O)[C@H](Cc1ccccc1)NC(=O)CNC(=O)[C@@H](C)NC(=O)[C@@H](N)Cc1ccc(O)cc1)N(C)C(=O)[C@@H](Cc1c[nH]c2ccccc12)NC(=O)OC(C)(C)C" .
# output 1.68

# input I have this compound here, "CCCC[C@H](NC(=O)[C@H](Cc1c[nH]c2ccccc12)NC(C)=O)C(=O)N[C@@H](CC(=O)O)C(=O)N[C@@H](Cc1ccccc1)C(=O)NNC(=O)[C@H](Cc1ccccc1)NC(=O)CNC(=O)[C@@H](C)NC(=O)[C@@H](N)Cc1ccc(O)cc1" , and I need its recorded log10(IC50).
# output 1.79

---

test target: Delta-type opioid receptor (Homo sapiens, UniProt P41143)
method summary: Displacement of [3H]DPDPE from human delta opioid receptor expressed in HN9.10 cells
property measured: pKi
pKi is defined as minus the log10 of a concentration measured in mol/L.

# input What pKi appears in the records for this molecule with Delta-type opioid receptor (Homo sapiens, UniProt P41143)? "CCCC[C@H](NC(=O)[C@H](Cc1c[nH]c2ccccc12)NC(=O)OC(C)(C)C)C(=O)N[C@@H](CC(=O)O)C(=O)N[C@@H](Cc1ccccc1)C(=O)NNC(=O)[C@H](Cc1ccccc1)NC(=O)CNC(=O)[C@@H](C)NC(=O)[C@@H](N)Cc1ccc(O)cc1"
# output 7.23

# input API: value(readout= pKi, system= Delta-type opioid receptor (Homo sapiens, UniProt P41143), query= CCCC[C@H](NC(=O)[C@@H](Cc1c[nH]c2ccccc12)NC(=O)OC1C2CC3CC(C2)CC1C3)C(=O)N[C@@H](CC(=O)O)C(=O)N[C@@H](Cc1ccccc1)C(=O)NNC(=O)[C@H](Cc1ccccc1)NC(=O)CNC(=O)[C@@H](C)NC(=O)[C@@H](N)Cc1ccc(O)cc1 (stereo not given in full) )
# output 8.47

# input Under Delta-type opioid receptor (Homo sapiens, UniProt P41143): pKi value of "CCCC[C@H](NC(=O)[C@H](N)Cc1c[nH]c2ccccc12)C(=O)N[C@@H](CC(=O)O)C(=O)N[C@@H](Cc1ccccc1)C(=O)NNC(=O)[C@H](Cc1ccccc1)NC(=O)CNC(=O)[C@@H](C)NC(=O)[C@@H](N)Cc1ccc(O)cc1" ?
# output 8.85

# input What reported pKi corresponds to "CC(=O)N[C@@H](Cc1c[nH]c2ccccc12)C(=O)N[C@@H](CCCCNC(=O)Nc1ccccc1Cl)C(=O)N[C@@H](CC(=O)O)C(=O)N(C)[C@@H](Cc1ccccc1)C(=O)NNC(=O)[C@H](Cc1ccccc1)NC(=O)CNC(=O)[C@@H](C)NC(=O)[C@@H](N)Cc1ccc(O)cc1" on Delta-type opioid receptor (Homo sapiens, UniProt P41143)?
# output 9.32

# input I'm curious: which pKi was measured for "CCCC[C@H](NC(=O)[C@H](Cc1c[nH]c2ccccc12)NC(C)=O)C(=O)N[C@@H](CC(=O)O)C(=O)N[C@@H](Cc1ccccc1)C(=O)NNC(=O)[C@H](Cc1ccccc1)NC(=O)CNC(=O)[C@@H](C)NC(=O)[C@@H](N)Cc1ccc(O)cc1" tested on Delta-type opioid receptor (Homo sapiens, UniProt P41143)?
# output 7.64

---

test target: UniProt P32238
Sequence (P32238 whole entry): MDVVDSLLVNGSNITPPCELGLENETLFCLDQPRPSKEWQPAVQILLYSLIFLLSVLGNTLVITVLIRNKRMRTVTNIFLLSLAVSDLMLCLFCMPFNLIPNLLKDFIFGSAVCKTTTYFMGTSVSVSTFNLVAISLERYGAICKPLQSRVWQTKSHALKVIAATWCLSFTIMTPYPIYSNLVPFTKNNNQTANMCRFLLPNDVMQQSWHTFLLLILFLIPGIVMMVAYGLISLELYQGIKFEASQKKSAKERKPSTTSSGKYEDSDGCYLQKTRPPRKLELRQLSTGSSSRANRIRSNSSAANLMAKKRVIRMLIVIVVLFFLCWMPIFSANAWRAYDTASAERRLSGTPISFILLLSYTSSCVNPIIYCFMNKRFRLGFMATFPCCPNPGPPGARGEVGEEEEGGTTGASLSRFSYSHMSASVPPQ
method summary: Displacement of [125I]CCK8 from human CCK1 receptor expressed in HEK293 cells
Type: cell-based
property measured: Ki (nM)
Give just the numeric value; nM need not be written.

# input Dear colleague, I am looking for the recorded Ki of the following molecule: CCCC[C@H](NC(=O)[C@@H](Cc1c[nH]c2ccccc12)NC(=O)OC1C2CC3CC(C2)CC1C3)C(=O)N[C@@H](CC(=O)O)C(=O)N[C@@H](Cc1ccccc1)C(=O)NNC(=O)[C@H](Cc1ccccc1)NC(=O)CNC(=O)[C@@H](C)NC(=O)[C@@H](N)Cc1ccc(O)cc1 (stereo partly specified)
# output 560

# input Record request: Ki value, item "CCCC[C@H](NC(=O)[C@@H](Cc1c[nH]c2ccccc12)NC(=O)OC12CC3CC(CC(C3)C1)C2)C(=O)N[C@@H](CC(=O)O)C(=O)N[C@@H](Cc1ccccc1)C(=O)NNC(=O)[C@H](Cc1ccccc1)NC(=O)CNC(=O)[C@@H](C)NC(=O)[C@@H](N)Cc1ccc(O)cc1"
# output 840

# input Please report the recorded Ki for "CCCC[C@H](NC(=O)[C@H](N)Cc1c[nH]c2ccccc12)C(=O)N[C@@H](CC(=O)O)C(=O)N[C@@H](Cc1ccccc1)C(=O)NNC(=O)[C@H](Cc1ccccc1)NC(=O)CNC(=O)[C@@H](C)NC(=O)[C@@H](N)Cc1ccc(O)cc1" .
# output 10000

# input Consider the molecule shown here: "CCCC[C@H](NC(=O)[C@H](Cc1c[nH]c2ccccc12)NC(=O)OC(C)(C)C)C(=O)N[C@@H](CC(=O)O)C(=O)N[C@@H](Cc1ccccc1)C(=O)NNC(=O)[C@H](Cc1ccccc1)NC(=O)CNC(=O)[C@@H](C)NC(=O)[C@@H](N)Cc1ccc(O)cc1" What is its recorded Ki?
# output 4100

# input Can you share its Ki? I mean this molecule: "CCCC[C@@H](C(=O)N[C@@H](CC(=O)O)C(=O)N[C@@H](Cc1ccccc1)C(=O)NNC(=O)[C@H](Cc1ccccc1)NC(=O)CNC(=O)[C@@H](C)NC(=O)[C@@H](N)Cc1ccc(O)cc1)N(C)C(=O)[C@@H](Cc1c[nH]c2ccccc12)NC(=O)OC(C)(C)C"
# output 1900
